# method_summary: Human HepG2 cell viability assay in 384 well format
# Type: toxicity, cell-based
# Set-up: dose 125 nL, time 70.5 hour; concentration not given beside the values
# experimental_setup: HepG2 cells, read-out: Inhibition
measured_metric: cytotoxicity at 70.5 h (%)
Output spec: scalar in %, unitless text.

>>> observed_value("COCC(NC(=O)c1cccnc1)c1cccc(C(F)(F)F)c1 (configuration not stated)")
-5.85

[ask] Provide only the value of recorded cytotoxicity at 70.5 h for CCC(=O)N1CCC(c2nc(N3CCOCC3)ncc2S(C)(=O)=O)CC1
[reply] -9.6

[ask] Supply recorded cytotoxicity at 70.5 h for NCC1[C@H]2CN(Cc3cccc(Cl)c3)C[C@@H]12 (some centres not stated) here.
[reply] -5.77

[ask] Specify reported cytotoxicity at 70.5 h for the compound shown: c1cc(CN2CCO[C@H]3[C@H](OCCN4CCCC4)CC[C@@H]32)ccn1
[reply] -11.7

[ask] Quick one: give measured cytotoxicity at 70.5 h for CS(=O)(=O)C1(C(=O)NC2CCc3nccn3C2)CCCC1 (configuration not stated)
[reply] -4.12

[ask] Note down cytotoxicity at 70.5 h recorded for Cc1nc(CCNC(=O)C2CC(=O)N(C(C)C)C2)cs1 (configuration not stated)
[reply] 32.3

[ask] Please list cytotoxicity at 70.5 h recorded for the compound CSCCC(NC(=O)c1ccc2ccccc2n1)C(=O)N(C)C (configuration not stated)
[reply] 18

[ask] Output cytotoxicity at 70.5 h of O=c1[nH]cc(N2CCOCC2)c(=O)[nH]1
[reply] -0.0513

[ask] Note cytotoxicity at 70.5 h for the compound shown: Cn1nccc1CN1CCOC(c2cccc(-c3cncnc3)n2)C1 (configuration not stated)
[reply] 14.3

[ask] Output measured cytotoxicity at 70.5 h for this item: CCC(CO)N(Cc1ccccn1)C(=O)c1cccc(C#N)c1 (configuration not stated)
[reply] -1.64

[ask] Note down cytotoxicity at 70.5 h recorded for O=C(OC1CCC1)c1ncccc1C(F)(F)F
[reply] -3.86

[ask] Give recorded cytotoxicity at 70.5 h. CNC(=O)c1cnc(/C=C/c2cc(OC)cc(OC)c2)s1
[reply] 17.6

====

Reported cytotoxicity at 70.5 h is given for each of the following compounds.
# method_summary: Human HepG2 cell viability assay in 384 well format
# Format: toxicity, cell-based
# Set-up: dose 125 nL, time 70.5 hour; concentration not given beside the values
# experimental_setup: HepG2 cells, read-out: Inhibition
The reply should be a number in %, with the unit left off.

Example cases with answers are listed next.
>>> observed_value("O=C(Nc1cccnc1)c1noc2c1CN(S(=O)(=O)C1CC1)CC2")
-12.1
>>> observed_value("CC(C)NC(=O)NCc1ccccc1NS(=O)(=O)c1ccccc1")
12.7

[ask] Assign cytotoxicity at 70.5 h to the following record: Cc1ccnc(C(NC(=O)c2oc(C)nc2C)C2CC2)n1 (configuration not stated)
[reply] -3.47

[ask] Give the value of cytotoxicity at 70.5 h reported for the following: CCc1c(C)sc2nc3n(CCN(C)C)nc(SC)n3c(=O)c12
[reply] 20.8

[ask] Give cytotoxicity at 70.5 h for the following compound: CC1CN(C)CCN1C(=O)c1ccn(-c2cccc(Cl)c2)n1 (configuration not stated)
[reply] -13.2

[ask] Hello, please tell me recorded cytotoxicity at 70.5 h for this one: CC(C)c1noc(CCNC(=O)N2CCC(O)(C(F)(F)F)C2)n1 (configuration not stated)
[reply] -14.8

[ask] // fetch cytotoxicity at 70.5 h given entry c1cc(CN2CCO[C@@H]3CNC[C@@H]32)cs1
[reply] -2.99

[ask] Identify cytotoxicity at 70.5 h associated with the compound Cc1cc(C)c(CNC(=O)C2CCCN(c3cnccn3)C2)c(=O)[nH]1 (configuration not stated)
[reply] -14.3

[ask] Please list cytotoxicity at 70.5 h recorded for the compound CCN1CCCC1CNCc1cc2cc(OC)c(OC)cc2[nH]c1=O (configuration not stated)
[reply] -1.47

[ask] Item Cc1nc(C)n(CC2CCCN2CCC(=O)NC2CCCC2)n1 (configuration not stated) : provide cytotoxicity at 70.5 h
[reply] 0.666

====

# method_summary: Human HepG2 cell viability assay in 384 well format
# Type: toxicity, cell-based
# Design: dose 125 nL, time 70.5 hour; concentration not given beside the values
# experimental_setup: HepG2 cells, read-out: Inhibition
As shown below, each of these compounds has a reported cytotoxicity at 70.5 h value.
Enter your answer as a number in %; do not include the unit.

>>> observed_value("COc1ccccc1CC(C)(C)C(=O)NCC(=O)Nc1cccnc1")
3.9
>>> observed_value("Cc1ccc(NS(C)(=O)=O)c(C(=O)NCCC(=O)NC(C)C)c1")
-6.46
>>> observed_value("O=C(NCc1cccs1)c1nc2c(o1)CN(C(=O)c1cccnc1)C2")
7.5
>>> observed_value("CC/N=c1\\c(NC(=O)C(C)(C)C)c(O)oc2ccccc12")
22.9

[ask] Fill in reported cytotoxicity at 70.5 h for this entry: CCn1nc(CNC(=O)C2CCCN(C(=O)COC)C2)c2ccccc21 (stereo unspecified)
[reply] -5.41

[ask] For the compound Cc1csc(NC(=O)c2ccc(NC(=O)N3CCOCC3)cc2)n1 , give its measured cytotoxicity at 70.5 h value.
[reply] 3.47

[ask] Read off the recorded cytotoxicity at 70.5 h for Cc1nc(CN2CCN(C)C(=O)C23CCN(C(C)C)CC3)cs1
[reply] -9.48

[ask] Output measured cytotoxicity at 70.5 h for this item: CC(C)=CCCC1(C)CCC(=O)N(CCNc2nc(C)cc(=O)[nH]2)C1 (stereo unspecified)
[reply] -10.3

[ask] State, in one line, measured cytotoxicity at 70.5 h of Cn1cc(C2CCCN2C(=O)c2cnc(-c3ccccn3)s2)cn1 (stereo unspecified)
[reply] 3.12

[ask] Input COc1cc(CNC(=O)c2c(C)noc2C(C)C)ccn1 , output reported cytotoxicity at 70.5 h.
[reply] -2.32

[ask] Identify measured cytotoxicity at 70.5 h corresponding to Cc1ccc(CN2C[C@@H]3COC[C@@H](CC(=O)N4CCOCC4)[C@@H]3C2)s1
[reply] -11

====

# method_summary: Human HepG2 cell viability assay in 384 well format
# Assay type: toxicity, cell-based
# Design: dose 125 nL, time 70.5 hour; concentration not given beside the values
# experimental_setup: HepG2 cells, read-out: Inhibition
Below, each entry is listed alongside its reported cytotoxicity at 70.5 h.
# unit: % | format: bare number

Solved cases below.
>>> observed_value("CNC(=O)N1C[C@H]2C[C@H](C(=O)Nc3cccnc3)[C@@H](C1)O2")
-2.82
>>> observed_value("CS(=O)(=O)N[C@@H]1CN(Cc2ccco2)C[C@@H]2CCCO[C@@H]21")
-6.79
>>> observed_value("CS(=O)(=O)c1ccc(-c2cnc(C3CCCN3)cn2)cc1 (centres undefined)")
-11.3
>>> observed_value("COC(=O)Cn1nc(-c2ccccc2F)ccc1=O")
19.4
>>> observed_value("CC(=O)NCc1cc2n(n1)CCN(Cc1cccc(Cl)c1F)C2")
36.9
>>> observed_value("CC(C)c1nnc2n1CCN(Cc1ccc3c(c1)OCCO3)C2")
0.93
>>> observed_value("COc1ccc(C(=O)Nc2cnn(CCN3CCOCC3)c2)c(O)c1")
0.79
>>> observed_value("Cc1noc(-c2cccnc2N2CCOC(C)(c3cnn(C)c3)C2)n1 (centres undefined)")
-6.06

[ask] Please list cytotoxicity at 70.5 h recorded for the molecule CC(=O)N1CCC2(CC1)CNc1ccc(F)cc12
[reply] -5.28

[ask] Supply reported cytotoxicity at 70.5 h belonging to this molecule: CCc1noc(C(C)N2CCN(Cc3ncc(C(C)(C)C)o3)CC2)n1 (centres undefined)
[reply] 11.8

[ask] Give a short answer stating reported cytotoxicity at 70.5 h for Cc1nnc2n1CCN(CCCS(=O)(=O)c1ccccc1)C2 .
[reply] 0.781

====

# method_summary: Human HepG2 cell viability assay in 384 well format
# Assay type: toxicity, cell-based
# Set-up: dose 125 nL, time 70.5 hour; concentration not given beside the values
# experimental_setup: HepG2 cells, read-out: Inhibition
Measured cytotoxicity at 70.5 h accompanies every entry in the list below.
Reply with just the number (in %).

Below: 4 compounds and their reported cytotoxicity at 70.5 h.
>>> observed_value("CSc1ccc(C(CNC(C)=O)N2CCc3sccc3C2)cc1 (configuration not stated)")
-12.8
>>> observed_value("O=C1CCC(=O)c2oc3ccccc3c2N1")
-5.85
>>> observed_value("O=C(O)c1ccc2c(c1)C1(CCCCC1)CN2C(=O)c1cccc(F)c1")
8.94
>>> observed_value("Fc1ccc(CN2CCOC[C@H](Oc3cccnc3)C2)cc1")
10.5

[ask] Write down cytotoxicity at 70.5 h measured for item Cn1nc2c(cc1=O)CN(CC(=O)Nc1nncs1)CC2
[reply] -1.1

[ask] Please give measured cytotoxicity at 70.5 h of the following entry: Cc1cnn(CCNCc2csc(-c3ncccn3)n2)c1
[reply] 18.5

[ask] Tell us which cytotoxicity at 70.5 h value is on record for Cc1cnn(CC2CN(CCN3CCCC3=O)CCO2)c1 (configuration not stated)
[reply] -11.5

[ask] // Input: CC(C)CO[C@@H]1CC[C@H]2[C@H]1OCCN2S(=O)(=O)C1CC1 . Output its cytotoxicity at 70.5 h only.
[reply] 12.4

[ask] Give cytotoxicity at 70.5 h for the following compound: CC[C@H]1NCCC[C@]12CCC(=O)N2Cc1ccncc1
[reply] -0.708

[ask] Recall and state the measured cytotoxicity at 70.5 h for O=C(c1cnc2ccccc2c1)N1CCCC(O)(CN2CCCC2)C1 (configuration not stated) .
[reply] -0.693

[ask] Supply cytotoxicity at 70.5 h value. Item: O=C(NCc1nnc2ccccn12)N1CCOC(c2ccsc2)C1 (configuration not stated)
[reply] -14.6

[ask] Quick one: give measured cytotoxicity at 70.5 h for CSCC[C@@H]1CN2CCC[C@H]2CN1Cc1coc2ccc(Cl)cc2c1=O
[reply] -5.47

[ask] Give a short answer stating reported cytotoxicity at 70.5 h for CCOC1CC2(CCN(Cc3cnn(C)c3)CC2)c2ccc(C)cc21 (configuration not stated) .
[reply] 1.09

[ask] Quickly give me recorded cytotoxicity at 70.5 h for CC(C)c1cc(C(=O)N2C[C@@H](C)[C@](O)(C3CC3)C2)[nH]n1
[reply] -5.59

[ask] Note down cytotoxicity at 70.5 h recorded for COC1CCN(S(=O)(=O)N2CC[C@@](O)(C3CCC3)[C@H](C)C2)CC1
[reply] -11.9

[ask] Answer with the recorded cytotoxicity at 70.5 h for the compound listed here: COCC(=O)N1CC[C@@H]2O[C@H](COCc3ccncc3)CC[C@@H]21
[reply] -15.9

[ask] Write down cytotoxicity at 70.5 h measured for item CCc1nc(CC)n(CC(=O)N(C)Cc2ccc(F)cc2)n1
[reply] -4.65

[ask] Look up and report measured cytotoxicity at 70.5 h for this entry: O=C(NCC(O)c1cccc(O)c1)C1CCN(C2CCCCC2)CC1 (configuration not stated)
[reply] -11.8

[ask] Quick one: give measured cytotoxicity at 70.5 h for Cc1n[nH]c(C)c1CNC(=O)N1CCCC(Cc2nccn2C)C1 (configuration not stated)
[reply] 0.74

[ask] Determine from records and report cytotoxicity at 70.5 h for Cc1cc(C(F)(F)F)nn1CCNC(=O)C(C)n1ccnc1C(C)C (configuration not stated)
[reply] 10.3
